Tested on: SK-OV-3
Test: NCI tumour cell line growth inhibition, 48 h
The source made the active and inactive calls. Cut-off read from the data, not from the text of the source: active = GI50 up to about 1.1 µM and inactive = higher.
# maps each entry to its GI50

CN/C(=N\n1cnnc1)OC : > 100 µM (inactive)
O=C1c2ccccc2C2C1N2C(=O)C(F)(F)F (stereo unspecified) : > 100 µM (inactive)

**Q:** # lookup: GI50 of c1ccc(C2=NOC3C4CCC(C4)C23)cc1 (stereo unspecified)
**A:** > 100 µM (inactive)

**Q:** # lookup: GI50 of COC(=S)OC1CC(n2cnc3c(=O)[nH]cnc32)OC1CO[Si](C)(C)C(C)(C)C (stereo unspecified)
**A:** > 100 µM (inactive)

**Q:** # lookup: GI50 of Cc1ccc2nc(/C=N/c3ccccc3Cl)cc(C)c2c1
**A:** 27.4 µM (inactive)

**Q:** # lookup: GI50 of CNC(=O)NCCN1N=C(C)/C(=C\c2ccccc2)CC1=O
**A:** > 100 µM (inactive)

**Q:** # lookup: GI50 of CCCCCCCCCCCCCOCCOCCOCCCCC(O)CCCCCCCCCC1=C[C@H](C)OC1=O (stereo partly specified)
**A:** 31.8 µM (inactive)

**Q:** # lookup: GI50 of Cc1ccccc1-c1cc(=O)c2cc(C)c(C)c(C(=O)O)c2o1
**A:** > 100 µM (inactive)

**Q:** # lookup: GI50 of C=C(C=O)CCCC(C)[C@@H]1CCC23CC12CCC1[C@@]2(C)CCC(OC(C)=O)C(C)(C)C2CC(OC2OC(COC(C)=O)C(O)C(O)C2O)[C@]13C (stereo partly specified)
**A:** 6.15 µM (inactive)

**Q:** # lookup: GI50 of Cc1cccc(/C=C2\CCCCCC2=O)c1
**A:** > 100 µM (inactive)

**Q:** # lookup: GI50 of C1=CC=C2NCCC/N=C3/C=CC=CC=C3NCCC/N=C\2C=C1
**A:** > 100 µM (inactive)
